Target: Bile salt export pump (Homo sapiens, UniProt O95342)
Sequence (O95342 whole entry): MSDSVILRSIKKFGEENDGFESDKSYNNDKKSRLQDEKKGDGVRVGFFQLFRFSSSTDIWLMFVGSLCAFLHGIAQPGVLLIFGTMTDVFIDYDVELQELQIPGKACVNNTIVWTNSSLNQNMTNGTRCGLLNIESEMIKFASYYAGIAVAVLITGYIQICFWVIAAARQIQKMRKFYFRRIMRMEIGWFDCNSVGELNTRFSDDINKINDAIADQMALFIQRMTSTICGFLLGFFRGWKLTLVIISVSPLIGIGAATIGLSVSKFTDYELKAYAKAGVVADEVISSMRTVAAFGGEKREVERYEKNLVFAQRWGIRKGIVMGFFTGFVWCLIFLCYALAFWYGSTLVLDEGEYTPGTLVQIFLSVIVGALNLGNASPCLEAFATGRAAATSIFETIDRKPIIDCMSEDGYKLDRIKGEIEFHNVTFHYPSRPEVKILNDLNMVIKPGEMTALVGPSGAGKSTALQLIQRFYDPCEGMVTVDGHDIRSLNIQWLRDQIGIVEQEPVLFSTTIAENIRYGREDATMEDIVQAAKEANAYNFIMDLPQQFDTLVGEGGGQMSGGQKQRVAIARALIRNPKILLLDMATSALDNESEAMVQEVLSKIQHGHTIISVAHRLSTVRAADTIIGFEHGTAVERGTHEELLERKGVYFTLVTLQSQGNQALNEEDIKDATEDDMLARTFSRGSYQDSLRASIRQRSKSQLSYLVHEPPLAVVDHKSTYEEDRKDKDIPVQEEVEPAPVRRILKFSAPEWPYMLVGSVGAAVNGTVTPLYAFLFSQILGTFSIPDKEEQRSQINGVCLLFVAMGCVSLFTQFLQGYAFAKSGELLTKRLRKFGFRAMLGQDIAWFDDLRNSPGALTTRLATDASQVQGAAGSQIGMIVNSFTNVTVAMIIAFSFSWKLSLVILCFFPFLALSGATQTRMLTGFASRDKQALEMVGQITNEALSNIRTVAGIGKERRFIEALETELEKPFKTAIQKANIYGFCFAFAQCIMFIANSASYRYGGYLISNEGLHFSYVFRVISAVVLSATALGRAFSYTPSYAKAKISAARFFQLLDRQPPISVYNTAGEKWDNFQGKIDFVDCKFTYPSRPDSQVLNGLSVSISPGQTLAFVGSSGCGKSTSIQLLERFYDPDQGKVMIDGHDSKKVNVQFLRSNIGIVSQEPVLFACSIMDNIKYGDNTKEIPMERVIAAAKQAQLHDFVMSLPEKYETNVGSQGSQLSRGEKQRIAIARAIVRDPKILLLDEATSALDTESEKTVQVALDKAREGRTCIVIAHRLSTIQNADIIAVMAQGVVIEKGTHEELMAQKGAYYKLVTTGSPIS
Assay: Inhibition of human BSEP in plasma membrane vesicles after 10 mins in presence of [3H]-taurocholate by topcount based transport assay
measured.quantity: pIC50
Numbers only, as −log10 of the molar value.

The compound listed as "COc1cc(C(=O)NS(C)(=O)=O)c(F)cc1-c1cnc(Oc2cc(F)ccc2F)c(Cl)c1" shows pIC50 equal to 4.88

----------
Target: Sodium channel protein type 5 subunit alpha (Homo sapiens, UniProt Q14524)
Sequence (Q14524 whole entry): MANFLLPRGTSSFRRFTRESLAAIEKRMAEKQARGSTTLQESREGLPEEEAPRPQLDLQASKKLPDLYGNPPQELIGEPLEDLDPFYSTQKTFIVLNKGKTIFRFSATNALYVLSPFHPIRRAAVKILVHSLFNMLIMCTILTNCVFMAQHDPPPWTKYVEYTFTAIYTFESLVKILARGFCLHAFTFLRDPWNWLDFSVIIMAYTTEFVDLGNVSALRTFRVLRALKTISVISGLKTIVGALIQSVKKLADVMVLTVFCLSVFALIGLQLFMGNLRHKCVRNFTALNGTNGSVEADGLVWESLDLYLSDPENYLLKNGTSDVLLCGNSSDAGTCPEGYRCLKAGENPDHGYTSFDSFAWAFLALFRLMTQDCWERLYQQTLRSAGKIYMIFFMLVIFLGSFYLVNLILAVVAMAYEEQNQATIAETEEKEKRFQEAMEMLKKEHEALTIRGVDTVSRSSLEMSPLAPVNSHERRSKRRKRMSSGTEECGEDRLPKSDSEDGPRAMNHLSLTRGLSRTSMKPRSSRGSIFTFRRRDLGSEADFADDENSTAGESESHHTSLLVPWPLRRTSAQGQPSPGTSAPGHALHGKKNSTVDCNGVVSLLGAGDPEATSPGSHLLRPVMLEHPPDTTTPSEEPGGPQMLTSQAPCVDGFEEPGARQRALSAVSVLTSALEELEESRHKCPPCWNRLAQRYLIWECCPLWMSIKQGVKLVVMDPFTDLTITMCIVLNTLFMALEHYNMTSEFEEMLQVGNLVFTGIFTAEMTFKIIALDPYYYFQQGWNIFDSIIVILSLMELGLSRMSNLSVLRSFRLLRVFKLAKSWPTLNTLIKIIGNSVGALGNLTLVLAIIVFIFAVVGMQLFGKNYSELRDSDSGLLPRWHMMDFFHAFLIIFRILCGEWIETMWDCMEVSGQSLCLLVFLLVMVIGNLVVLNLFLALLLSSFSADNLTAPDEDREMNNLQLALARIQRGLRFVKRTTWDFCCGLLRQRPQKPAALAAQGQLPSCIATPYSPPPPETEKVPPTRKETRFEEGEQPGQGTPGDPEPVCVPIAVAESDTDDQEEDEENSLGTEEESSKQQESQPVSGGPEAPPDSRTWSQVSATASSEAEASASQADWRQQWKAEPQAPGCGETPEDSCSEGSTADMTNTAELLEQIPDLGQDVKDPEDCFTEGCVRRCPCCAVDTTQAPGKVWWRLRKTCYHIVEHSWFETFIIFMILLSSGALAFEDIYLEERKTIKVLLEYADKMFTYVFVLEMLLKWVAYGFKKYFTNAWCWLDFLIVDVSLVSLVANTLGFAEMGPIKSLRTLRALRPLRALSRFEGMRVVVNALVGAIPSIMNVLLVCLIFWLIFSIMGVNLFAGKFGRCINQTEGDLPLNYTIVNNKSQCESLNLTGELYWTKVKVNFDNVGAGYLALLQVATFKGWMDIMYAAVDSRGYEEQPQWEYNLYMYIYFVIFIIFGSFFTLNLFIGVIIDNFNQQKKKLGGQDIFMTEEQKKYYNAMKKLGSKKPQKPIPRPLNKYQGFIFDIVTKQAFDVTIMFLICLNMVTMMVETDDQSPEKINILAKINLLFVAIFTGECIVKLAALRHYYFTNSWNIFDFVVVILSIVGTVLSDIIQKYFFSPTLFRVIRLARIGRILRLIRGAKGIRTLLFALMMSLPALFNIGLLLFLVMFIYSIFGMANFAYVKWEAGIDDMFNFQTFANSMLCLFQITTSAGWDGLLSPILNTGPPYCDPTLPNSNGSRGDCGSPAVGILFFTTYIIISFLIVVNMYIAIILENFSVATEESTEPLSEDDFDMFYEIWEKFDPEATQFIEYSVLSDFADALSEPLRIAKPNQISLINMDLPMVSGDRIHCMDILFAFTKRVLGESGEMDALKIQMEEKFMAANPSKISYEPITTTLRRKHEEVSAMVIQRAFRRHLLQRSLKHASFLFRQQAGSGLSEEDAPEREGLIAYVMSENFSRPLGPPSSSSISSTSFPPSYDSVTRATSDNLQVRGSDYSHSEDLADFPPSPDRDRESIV
Test: Inhibition of human Nav1.5 expressed in HEK293 cells incubated for 3 to 5 mins at -50 mV holding potential by electrophysiology assay
What log10 of IC50 was measured for each of the following?
Annotation: log10 of IC50, µM basis.

For every record below, what is its log10 of IC50?
1. CC(C)COc1ncc(-c2ccc(C(=O)NS(C)(=O)=O)c(F)c2)cc1Cl
2. CS(=O)(=O)NC(=O)c1ccc2c(Oc3ccc(Cl)c(C(F)(F)F)c3)nccc2c1
3. COc1cc(C(=O)NS(C)(=O)=O)ccc1-c1cnc(Oc2cc(F)ccc2F)c(Cl)c1
4. COc1cc(C(=O)NS(C)(=O)=O)ccc1-c1cnc(Oc2cc(Cl)cc(Cl)c2)c(C(F)(F)F)c1

1. 1.26
2. 1.16
3. 1.37
4. 0.37
